Every entry's value here was drawn from patent US7342011B2.

Tested on: E. coli
PROTOCOL_DETAILS: MIC assay, E. coli
Type: cell-based
QUANTITY_KIND: MIC (μg/mL) E. coli (µg/mL)
Please give a number only; it is taken to be in µg/mL.

CO[C@H]1/C=C/O[C@@]2(C)Oc3c(C)c(O)c4c(=O)c(c5oc6cc(N7CCC(c8ccccc8)CC7)cc(O)c6nc-5c4c3C2=O)NC(=O)/C(C)=C\C=C\[C@H](C)[C@H](O)[C@@H](C)[C@@H](O)[C@@H](C)[C@H](OC(C)=O)[C@@H]1C : 8

Moving on to the next molecule.
Give recorded MIC (μg/mL) E. coli. CO[C@H]1/C=C/O[C@@]2(C)Oc3c(C)c(O)c4c(=O)c(c5oc6cc(N7C[C@H]8CCCN[C@H]8C7)cc(O)c6nc-5c4c3C2=O)NC(=O)/C(C)=C\C=C\[C@H](C)[C@H](O)[C@@H](C)[C@@H](O)[C@@H](C)[C@H](OC(C)=O)[C@@H]1C
8

====

System: E. coli
PROTOCOL_DETAILS: MIC assay, E. coli
Format: cell-based
QUANTITY_KIND: MIC (μg/mL) E. coli

See these solved cases before continuing.
CCCS(=O)(=O)NC1CCN(c2cc(O)c3nc4c5c6c7c(C)c(O)c5c(=O)c(c-4oc3c2)NC(=O)C(C)=CC=CC(C)C(O)C(C)C(O)C(C)C(O)C(C)C(OC)C=COC(C)(O7)C6=O)CC1 (stereo not shown) : >8 µg/mL
COCCOC(=O)NC1CCN(c2cc(O)c3nc4c5c6c7c(C)c(O)c5c(=O)c(c-4oc3c2)NC(=O)C(C)=CC=CC(C)C(O)C(C)C(O)C(C)C(O)C(C)C(OC)C=COC(C)(O7)C6=O)CC1 (stereo not shown) : 8 µg/mL
COC1C=COC2(C)Oc3c(C)c(O)c4c(=O)c(c5oc6cc(N7CCC(NC(=O)OC(C)(C)C)CC7)cc(O)c6nc-5c4c3C2=O)NC(=O)C(C)=CC=CC(C)C(O)C(C)C(O)C(C)C(O)C1C (stereo not shown) : >8 µg/mL

Moving on to the next molecule.
Give recorded MIC (μg/mL) E. coli. COC(=O)NC1CCN(c2cc(O)c3nc4c5c6c7c(C)c(O)c5c(=O)c(c-4oc3c2)NC(=O)/C(C)=C\C=C\[C@H](C)[C@H](O)[C@@H](C)[C@@H](O)[C@@H](C)[C@H](O)[C@H](C)[C@@H](OC)/C=C/O[C@@](C)(O7)C6=O)CC1
>8 µg/mL

====

Tested on: E. coli
PROTOCOL_DETAILS: MIC assay, E. coli
Format: cell-based
QUANTITY_KIND: MIC (μg/mL) E. coli

CO[C@H]1/C=C/O[C@@]2(C)Oc3c(C)c(O)c4c(=O)c(c5oc6cc(N7CCC(C)(NC(C)=O)CC7)cc(O)c6nc-5c4c3C2=O)NC(=O)/C(C)=C\C=C\[C@H](C)[C@H](O)[C@@H](C)[C@@H](O)[C@@H](C)[C@H](OC(C)=O)[C@@H]1C : >8 µg/mL
COC1C=COC2(C)Oc3c(C)c(O)c4c(=O)c(c5oc6cc(N7CC8C(N)C8C7)cc(O)c6nc-5c4c3C2=O)NC(=O)C(C)=CC=CC(C)C(O)C(C)C(O)C(C)C(O)C1C (centres unmarked) : >8 µg/mL
CO[C@H]1/C=C/O[C@@]2(C)Oc3c(C)c(O)c4c(=O)c(c5oc6cc(N7CCC(N(C)C)CC7)cc(O)c6nc-5c4c3C2=O)NC(=O)/C(C)=C\C=C\[C@H](C)[C@H](O)[C@@H](C)[C@@H](O)[C@@H](C)[C@H](OC(C)=O)[C@@H]1C : 8 µg/mL
CO[C@H]1/C=C/O[C@@]2(C)Oc3c(C)c(O)c4c(=O)c(c5oc6cc(N7CCC(NC(C)=O)CC7)cc(O)c6nc-5c4c3C2=O)NC(=O)/C(C)=C\C=C\[C@H](C)[C@H](O)[C@@H](C)[C@@H](O)[C@@H](C)[C@H](OC(C)=O)[C@@H]1C : >8 µg/mL
CCNC(=O)NC1CCN(c2cc(O)c3nc4c5c6c7c(C)c(O)c5c(=O)c(c-4oc3c2)NC(=O)C(C)=CC=CC(C)C(O)C(C)C(O)C(C)C(O)C(C)C(OC)C=COC(C)(O7)C6=O)CC1 (centres unmarked) : >8 µg/mL
COCCOC(=O)NC1CCN(c2cc(O)c3nc4c5c6c7c(C)c(O)c5c(=O)c(c-4oc3c2)NC(=O)/C(C)=C\C=C\[C@H](C)[C@H](O)[C@@H](C)[C@@H](O)[C@@H](C)[C@H](OC(C)=O)[C@H](C)[C@@H](OC)/C=C/O[C@@](C)(O7)C6=O)CC1 : >8 µg/mL
COC1C=COC2(C)Oc3c(C)c(O)c4c(=O)c(c5oc6cc(N7CCC(NS(=O)(=O)C(F)(F)F)CC7)cc(O)c6nc-5c4c3C2=O)NC(=O)C(C)=CC=CC(C)C(O)C(C)C(O)C(C)C(O)C1C (centres unmarked) : >8 µg/mL

Moving on to the next molecule.
Give recorded MIC (μg/mL) E. coli. CO[C@H]1/C=C/O[C@@]2(C)Oc3c(C)c(O)c4c(=O)c(c5oc6cc(N7CCC(N8CCOCC8)CC7)cc(O)c6nc-5c4c3C2=O)NC(=O)/C(C)=C\C=C\[C@H](C)[C@H](O)[C@@H](C)[C@@H](O)[C@@H](C)[C@H](O)[C@@H]1C
4 µg/mL
